What log10 IC50 was measured for each of the following?
Tested System: purified HLA DRB1*1101 (Homo sapiens, UniProt P01903+P01911, A100R/A169T/A87E/I96F/K41T/L162R/M171V/P40S/Q125H/Q178H/Q39Y/Q99D/R42S/S66Y/T262R/V115G/W38E)
Construct: purified from EBV transformed homozygous cell lines or single MHC allele transfected 721.221, C1R, or fibroblast lines; made in house
Sequence (P01903 26-254, other chains not shown): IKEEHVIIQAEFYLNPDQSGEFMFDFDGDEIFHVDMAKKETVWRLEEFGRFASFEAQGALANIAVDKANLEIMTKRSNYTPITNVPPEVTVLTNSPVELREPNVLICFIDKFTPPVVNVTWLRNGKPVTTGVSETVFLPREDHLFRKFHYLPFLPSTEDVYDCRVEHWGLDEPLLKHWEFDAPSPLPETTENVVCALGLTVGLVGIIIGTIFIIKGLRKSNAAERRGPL
Test: HLA-DR radioligand binding inhibition assay, DRB1*1101
Condition Details: IC50 nM purified HLA DRB1 *1101, purified HLA DRB1*1101
Protocol: Instead, wells of an opaque white 96-well Optiplate (Packard) are coated with 3 μg (100 μl@ 30 μg/ml) of HLA-specific antibody (Ab) that “capture” complexes of radiolabeled MHC and unlabeled peptide transferred from the molecular binding assay plate in 100 μl of 0.05% NP40/PBS. […] Captured complexes are then measured on a microplate scintillation and luminescence counter (TopCount NXTTM; Packard). […]
All values: log10 IC50 [nM].

Notebook: CC[C@H](C)[C@H](NC(=O)[C@@H](NC(=O)[C@H](CO)NC(=O)[C@H](CC(=O)O)NC(=O)[C@@H](N)CO)C(C)C)C(=O)N[C@@H](CC(C)C)C(=O)N[C@@H](CC(N)=O)C(=O)N[C@H](C(=O)N[C@@H](CC(C)C)C(=O)N[C@@H](Cc1ccc(O)cc1)C(=O)NCC(=O)N1CCC[C@H]1C(=O)N[C@@H](CC(=O)O)C(=O)N[C@@H](C)C(=O)N1CCC[C@H]1C(=O)O)C(C)C [Peptide 9019.0119] , log10 IC50 read as 3.96

Notebook: CC[C@H](C)[C@H](NC(=O)[C@H](CC(C)C)NC(=O)[C@H](C)NC(=O)[C@H](CC(C)C)NC(=O)CN)C(=O)N[C@@H](Cc1c[nH]cn1)C(=O)N[C@@H](Cc1c[nH]cn1)C(=O)N[C@@H](CC(N)=O)C(=O)N[C@H](C(=O)N[C@@H](Cc1c[nH]cn1)C(=O)N[C@@H](CC(C)C)C(=O)N[C@@H](CS)C(=O)N[C@@H](Cc1ccccc1)C(=O)N[C@H](C(=O)N[C@@H](Cc1c[nH]cn1)C(=O)O)C(C)C)[C@@H](C)O [Peptide 9019.0058] , log10 IC50 read as 3.45

Notebook: CC(C)[C@H](NC(=O)[C@H](Cc1ccccc1)NC(=O)[C@H](Cc1c[nH]c2ccccc12)NC(=O)[C@H](CO)NC(=O)[C@H](Cc1ccc(O)cc1)NC(=O)[C@@H](N)CCC(N)=O)C(=O)N[C@@H](CC(N)=O)C(=O)NCC(=O)N[C@H](C(=O)N[C@@H](Cc1ccccc1)C(=O)N[C@@H](CCC(N)=O)C(=O)N[C@@H](CCC(N)=O)C(=O)N[C@@H](CO)C(=O)N[C@H](C(=O)N[C@@H](CCC(N)=O)C(=O)O)[C@@H](C)O)[C@@H](C)O [Peptide 9019.0122] , log10 IC50 read as 2.36

Notebook: CC[C@H](C)[C@H](NC(=O)[C@H](CCSC)NC(=O)[C@H](Cc1c[nH]c2ccccc12)NC(=O)[C@H](CS)NC(=O)[C@H](CCCCN)NC(=O)[C@@H](NC(=O)[C@H](CCSC)NC(=O)[C@@H](NC(=O)[C@H](CCSC)NC(=O)[C@H](Cc1ccc(O)cc1)NC(=O)[C@@H](NC(=O)[C@@H](N)CC(=O)O)C(C)C)[C@@H](C)CC)C(C)C)C(=O)N[C@@H](CC(=O)O)C(=O)N[C@@H](CO)C(=O)N[C@@H](CCC(=O)O)C(=O)O [Peptide 9019.0094] , log10 IC50 read as 2.24

Notebook: CC[C@H](C)[C@H](NC(=O)[C@H](CC(C)C)NC(=O)[C@@H](NC(=O)CNC(=O)CNC(=O)[C@H](CCCCN)NC(=O)[C@H](CC(C)C)NC(=O)[C@@H](NC(=O)[C@H](CCC(=O)O)NC(=O)[C@@H](N)[C@@H](C)O)[C@@H](C)CC)C(C)C)C(=O)N[C@@H](CCC(N)=O)C(=O)N[C@@H](CCCNC(=N)N)C(=O)N[C@@H](CC(N)=O)C(=O)N1CCC[C@H]1C(=O)N[C@@H](CCC(N)=O)C(=O)O [Peptide 9019.0039] , log10 IC50 read as 2.81
